- Test system: Jurkat cell line (leukemia cell line)
- experiment: Toxicity / cell growth of Jurkat cell line
- Type: cell-based
- protocolConditions: Homo sapiens, Jurkat; Table 8; read-out: IC50, toxicity of Jurkat cell line (leukemia cell line)

{"testSmiles": "COc1ccc2nc(/C=C/C(=O)c3ccnc(OC)c3)ccc2c1", "IC50 / nM": 1700}
{"testSmiles": "COc1ccc2nc(/C=C/C(=O)c3ccncc3)ccc2c1", "IC50 / nM": 1200}
{"testSmiles": "O=C(/C=C/c1ccc2cc(OCCN3CCCCC3)ccc2n1)c1ccncc1", "IC50 / nM": 2500}
{"testSmiles": "O=C(/C=C/c1ccc2cccc(C(F)(F)F)c2n1)c1ccncc1", "IC50 / nM": 900}
{"testSmiles": "Cc1ccc2ccc(/C=C/C(=O)c3ccncc3)nc2c1", "IC50 / nM": 1300}

----------
- experiment: IV pharmacokinetics in mice
- Format: in vivo, Balbc mice
- protocolConditions: mouse, plasma, 5 mg/kg; Table 2; Balbc mice, IV dosing; read-out: Cmax

{"compound": "O=C(/C=C/c1ccc2ccc(C(F)(F)F)cc2n1)c1ccncc1 [PFK-158]", "Cmax [ng/mL]": 4180}
{"compound": "O=C(/C=C/c1ccc2ccccc2n1)c1ccncc1 [PFK-015]", "Cmax [ng/mL]": 3050}

----------
- experimentalTarget: PFKFB3 (Homo sapiens, UniProt Q16875)
- Sequence (Q16875 whole entry): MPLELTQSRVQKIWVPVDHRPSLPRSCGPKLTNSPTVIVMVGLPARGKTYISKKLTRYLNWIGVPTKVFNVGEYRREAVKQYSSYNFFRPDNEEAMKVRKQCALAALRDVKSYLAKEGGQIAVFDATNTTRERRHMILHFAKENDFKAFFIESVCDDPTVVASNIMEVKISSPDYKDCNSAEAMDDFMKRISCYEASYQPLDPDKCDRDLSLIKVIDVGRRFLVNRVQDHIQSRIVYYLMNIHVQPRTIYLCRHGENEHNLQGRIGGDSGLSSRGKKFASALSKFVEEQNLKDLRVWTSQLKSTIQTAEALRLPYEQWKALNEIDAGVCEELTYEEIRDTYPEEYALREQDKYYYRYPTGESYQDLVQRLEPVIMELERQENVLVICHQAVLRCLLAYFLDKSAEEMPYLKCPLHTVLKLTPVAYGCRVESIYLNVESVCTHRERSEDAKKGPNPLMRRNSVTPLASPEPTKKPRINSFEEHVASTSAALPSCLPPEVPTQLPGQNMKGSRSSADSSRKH
- experiment: Enzymatic activity of recombinant PFKFB3, ADP-Glo assay
- Format: biochemical
- protocolConditions: FIG. 1; read-out: IC50, inhibition of recombinant PFKFB3 (ADP-Glo)

{"testSmiles": "O=C(/C=C/c1ccc2ccc(C(F)(F)F)cc2n1)c1ccncc1", "experimentalTarget": "PFKFB3 (Homo sapiens, UniProt Q16875)", "IC50 / nM": 137}

----------
- experimentalTarget: PFKFB3 (Homo sapiens)
- experiment: Enzymatic activity of PFKFB3 in cells (F2,6BP levels, Van Schaftingen method)
- Type: cell-based
- Parameters: endogenous in cells; host or cells: Jurkat cells
- protocolConditions: FIG. 3; Jurkat cells, 3 hours; read-out: IC50, PFKFB3 in cells by fructose-2,6-biphosphate levels

{"compound": "O=C(/C=C/c1ccc2ccc(C(F)(F)F)cc2n1)c1ccncc1 [PFK-158]", "measureUnit": "nM", "IC50": 1600}

----------
- experiment: IV pharmacokinetics in mice
- Format: in vivo, Balbc mice
- protocolConditions: mouse, plasma, 5 mg/kg; Table 9; BalbC mice, IV dosing
For each record, check the reported clearance: if it is below 100 mL/min/kg write y, else write n.

{"testSmiles": "Cc1ccc2ccc(/C=C/C(=O)c3ccncc3)nc2c1", "groupLabel": "y"}
{"testSmiles": "O=C(/C=C/c1ccc2cccc(C(F)(F)F)c2n1)c1ccncc1", "groupLabel": "n"}
{"testSmiles": "O=C(/C=C/c1ccc2cc(OCCN3CCCCC3)ccc2n1)c1ccncc1", "groupLabel": "n"}
{"testSmiles": "COc1ccc2nc(/C=C/C(=O)c3ccncc3)ccc2c1", "groupLabel": "n"}
{"testSmiles": "COc1ccc2nc(/C=C/C(=O)c3ccnc(OC)c3)ccc2c1", "groupLabel": "n"}

----------
- experiment: IV pharmacokinetics in mice
- Assay type: in vivo, Balbc mice
- protocolConditions: mouse, plasma, 5 mg/kg; Table 9; BalbC mice, IV dosing; read-out: Cmax
For each record, check the reported Cmax: if it is below 700 ng/mL write Fulfilled, else write Not fulfilled.

{"testSmiles": "O=C(/C=C/c1ccc2cc(OCCN3CCCCC3)ccc2n1)c1ccncc1", "groupLabel": "Fulfilled"}
{"testSmiles": "COc1ccc2nc(/C=C/C(=O)c3ccncc3)ccc2c1", "groupLabel": "Not fulfilled"}
{"testSmiles": "COc1ccc2nc(/C=C/C(=O)c3ccnc(OC)c3)ccc2c1", "groupLabel": "Not fulfilled"}
{"testSmiles": "O=C(/C=C/c1ccc2cccc(C(F)(F)F)c2n1)c1ccncc1", "groupLabel": "Fulfilled"}
{"testSmiles": "Cc1ccc2ccc(/C=C/C(=O)c3ccncc3)nc2c1", "groupLabel": "Fulfilled"}
